Target: hTAS2R39 (Homo sapiens)
Construct: first 45 amino acids of rat somatostatin receptor type 3 (sst3 membrane-targeting tag) (N); expressed in transfected cells; host or cells: HEK293 T-Rex Flp-In cells stably expressing Gα16-gust44; receptor in pcDNA5/FRT, induced with doxycycline
Test: Calcium assay of hTAS2R39 activation/inhibition in HEK293 T-Rex Flp-In cells
Assay type: cell-based
Settings: inhibition of hTAS2R39 response to 1.7 mM denatonium benzoate; simultaneous addition; n.b. = no blocking; read-out: IC50, Simultaneous
pIC50: −log10 of the molar value.
experimental readout: pIC50

compound="COc1ccc2c(c1)C(=O)CC(c1ccc(F)cc1)O2 (stereo not shown)" value_reported=4.66

###

# pEC50 listing for each entry below
Biological target: hTAS2R39 (Homo sapiens, UniProt P59534)
Construct: first 45 amino acids of rat somatostatin receptor type 3 (sst3 membrane-targeting tag) (N); expressed in transfected cells; host or cells: HEK293 T-Rex Flp-In cells stably expressing Gα16-gust44; receptor in pcDNA5/FRT, induced with doxycycline
Sequence (P59534 whole entry): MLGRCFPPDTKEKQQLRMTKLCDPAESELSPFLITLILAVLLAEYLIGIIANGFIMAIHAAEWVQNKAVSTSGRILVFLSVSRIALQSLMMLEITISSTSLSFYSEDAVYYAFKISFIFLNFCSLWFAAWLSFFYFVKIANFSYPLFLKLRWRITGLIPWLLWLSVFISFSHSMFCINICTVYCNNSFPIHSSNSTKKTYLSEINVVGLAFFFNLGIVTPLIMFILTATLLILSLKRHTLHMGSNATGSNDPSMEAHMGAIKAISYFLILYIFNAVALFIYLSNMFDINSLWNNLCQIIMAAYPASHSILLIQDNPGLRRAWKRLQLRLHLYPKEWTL
Assay: Calcium assay of hTAS2R39 activation/inhibition in HEK293 T-Rex Flp-In cells
Assay type: cell-based
Conditions: 0 μM 4′-fluoro-6-methoxyflavanone (6); stepwise addition; read-out: EC50 of agonist on hTAS2R39
pEC50: −log10 of the molar value.
experimental readout: pEC50

molecule="CC[N+](CC)(CC(=O)Nc1c(C)cccc1C)Cc1ccccc1 [Denatonium benzoate, denatonium benzoate, reference compound]" value_reported=3.18
molecule="O=C(O[C@@H]1Cc2c(O)cc(O)cc2O[C@@H]1c1ccc(O)c(O)c1)c1cc(O)c(O)c(O)c1 [ECG, Epicatechin gallate, reference compound]" value_reported=3.89

###

Molecular target: hTAS2R39 (Homo sapiens, UniProt P59534)
Construct: first 45 amino acids of rat somatostatin receptor type 3 (sst3 membrane-targeting tag) (N); expressed in transfected cells; host or cells: HEK293 T-Rex Flp-In cells stably expressing Gα16-gust44; receptor in pcDNA5/FRT, induced with doxycycline
Test: Calcium assay of hTAS2R39 activation/inhibition in HEK293 T-Rex Flp-In cells
Type: cell-based
Details: agonist dose-response curve (data not shown); read-out: EC50 on hTAS2R39
experimental readout: EC50 (µM)

molecule="CC[N+](CC)(CC(=O)Nc1c(C)cccc1C)Cc1ccccc1 [Denatonium benzoate, denatonium benzoate, reference compound]" experimental_readout=EC50 readout_units=µM value_reported=711

###

Biological target: hTAS2R39 (Homo sapiens)
Construct: first 45 amino acids of rat somatostatin receptor type 3 (sst3 membrane-targeting tag) (N); expressed in transfected cells; host or cells: HEK293 T-Rex Flp-In cells stably expressing Gα16-gust44; receptor in pcDNA5/FRT, induced with doxycycline
Experiment: Calcium assay of hTAS2R39 activation/inhibition in HEK293 T-Rex Flp-In cells
Format: cell-based
Details: inhibition of hTAS2R39 response to 200 μM ECG; simultaneous addition; n.b. = no blocking; read-out: IC50, Simultaneous
experimental readout: IC50

molecule="COc1ccc2c(c1)C(=O)CC(c1ccc(F)cc1)O2 (stereo not shown) [Compound 6, 4′-Fluoro-6-methoxyflavanone]" value_reported="32 µM"

###

Biological target: hTAS2R14 (Homo sapiens, UniProt Q9NYV8)
Construct: first 45 amino acids of rat somatostatin receptor type 3 (sst3 membrane-targeting tag) (N); expressed in transfected cells; host or cells: HEK293 T-Rex Flp-In cells stably expressing Gα16-gust44; induced with doxycycline
Sequence (Q9NYV8 whole entry): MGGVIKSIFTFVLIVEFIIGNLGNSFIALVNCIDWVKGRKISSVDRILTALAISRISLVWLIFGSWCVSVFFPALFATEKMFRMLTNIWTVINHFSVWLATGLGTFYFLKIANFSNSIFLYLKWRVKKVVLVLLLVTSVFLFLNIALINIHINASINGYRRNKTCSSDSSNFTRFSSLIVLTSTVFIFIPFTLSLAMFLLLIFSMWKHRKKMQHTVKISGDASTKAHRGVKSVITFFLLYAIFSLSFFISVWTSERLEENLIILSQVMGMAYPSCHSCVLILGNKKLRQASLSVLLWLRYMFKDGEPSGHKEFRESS
Test: Calcium assay of hTAS2R14 activation/inhibition in HEK293 T-Rex Flp-In cells
Assay type: cell-based
Settings: inhibition of hTAS2R14 response to 70 μM genistein; stepwise addition
pIC50: −log10 of the molar value.
experimental readout: pIC50

molecule="COc1ccc2c(c1)C(=O)CC(c1ccccc1)O2 (centres unmarked) [Compound 11, 6-Methoxyflavanone]" experimental_readout=pIC50 value_reported=3.13

Values compiled from paper PMC3983201.
